tested on: SNB-75 CNS; assay: NCI-60 one-dose screen, 48 h (100 = growth as untreated, 0 = no growth, -100 = all killed); conditions: 10 µM unless noted
The panel holds about 83,000 compounds, 20% with a hit somewhere; the sample as a whole holds those more often.
Readout Kind: growth (%)
Express it in %; write the number only.

The examples below pair each entry with its known result.
Molecular String	Assay Target	growth / %
N#CSc1c[nH]c2cccc(/C=C/C(=O)/C=C(O)/C=C/c3cccc4[nH]cc(SC#N)c34)c12	SNB-75 CNS	-23.1
COc1cc(OC)cc(-c2ccc(-c3ccc(C(=N)N)o3)o2)c1	SNB-75 CNS	87.6
COc1ccc(-c2n[nH]c(=O)c3nc(NC(=S)Nc4ccc(Oc5ccccc5)cc4)sc23)cc1	SNB-75 CNS	80.8
C=C1C(=O)O[C@H]2[C@H]1CC/C(COC(=O)/C=C/C(=O)OC/C1=C/CC[C@@]3(C)O[C@H]3[C@H]3OC(=O)C(=C)[C@@H]3CC1)=C\CC[C@@]1(C)O[C@@H]21	SNB-75 CNS	95.2
CN(C)S(=O)(=O)Oc1ccc(-c2sc3cc(OS(=O)(=O)N(C)C)ccc3c2C(=O)c2ccc(OCCN3CCCCC3)cc2)cc1	SNB-75 CNS	61.5
O=C(CCSc1nnc2n(Cc3ccccc3)c(=O)c3c4c(sc3n12)CCCC4)N1CCN(c2ccccc2)CC1	SNB-75 CNS	93.5
CCOC(=O)c1cnc2c(N=Nc3ccc(OC)cc3)c(N)nn2c1N	SNB-75 CNS	106
COc1ccc(/C=C2\COc3ccc(O)cc3C2=O)cc1	SNB-75 CNS	96.8
CC1(C)CC[C@]2(CO)CC[C@]3(C)[C@H](CC[C@@H]4[C@@]5(C)CCCNC(C)(C)[C@@H]5CC[C@]43C)[C@H]2[C@H]1O	SNB-75 CNS	80.1

So for CN(C)c1ccc(/C=C(\C#N)c2cc3ccccc3[nH]2)cc1 , the logged growth turned out to be 10.9

----------
system: SNB-75 CNS; test: NCI-60 one-dose screen, 48 h (100 = growth as untreated, 0 = no growth, -100 = all killed); details: 10 µM unless noted
About 83,000 compounds went through this panel and 20% of them were active in at least one assay; those are over-represented in the sample as a whole. Active and inactive are the calls of the source. The calls were made as follows: active = growth percent below 10; inactive = the rest.
Readout Kind: growth

With SNB-75 CNS as the test system, C=CC(=O)Nc1ccc(Nc2nccc(-c3ccc(N4CCCC4)c(C#N)c3)n2)cc1 showed growth of 15.4% (inactive)

----------
system: MDA-MB-231 breast; assay: NCI-60 one-dose screen, 48 h (100 = growth as untreated, 0 = no growth, -100 = all killed); details: 10 µM unless noted
About 83,000 compounds went through this panel and 20% of them were active in at least one assay; those are over-represented in the sample as a whole.
Heads up, the class ranges for growth are band A = under 20%, band B = from 20% up to 90%, band C = 90% and over

Using the reported growth, which band applies to COc1ccc(Cn2cc3c(c2-c2ccccc2)CCc2cnoc2-3)cc1 ? band A

Exercise: read the entry CCN(CC)CCCN1C(=O)c2c(c(C)c3c(oc4ccc(O)cc43)c2C)C1=O and state which class it falls under. band A

Lab note: sort Cc1n[nH]c2ccc(Br)cc2c1=O into the matching growth band. band C

For the record O=C1Nc2c(C(=O)O)cccc2/C1=N/c1n[nH]c(=S)s1 , report the class its growth corresponds to. band B

Which band does C#Cc1cccc(Nc2nc(C)nc3cc(NC(=O)CCl)ccc23)c1 fall in? band A

Classify this compound: O=C(N=Nc1c(O)[nH]c2ccccc12)Nc1ccc(F)cc1 band C

----------
tested on: KM12 colon; experiment: NCI-60 one-dose screen, 48 h; conditions: 10 µM unless noted
This is part of a sample that, as a whole, favours compounds with a hit. Of some 83,000 tested, about 20% had one in any assay. Activity calls are given as the source filed them. Rule for the calls: active = growth percent below 10; inactive = the rest.
Give your call using only these classes: active, inactive

Past entries and their recorded results:
> print(dat)
                                    molecule  assay.target  discrete.label
 1              CS(=O)(=O)c1nnc(-c2ccccc2)s1    KM12 colon        inactive
 2       N=C(N)c1ccc(-c2ccc(-c3ccccc3)s2)cc1    KM12 colon          active
 3        O=S(=O)(Oc1ccc(Br)cc1)c1ccc(Cl)cc1    KM12 colon        inactive
 4  COc1cc(/C=C2\CN(S(=O)(=O)c3ccccc3)C/C(=C\c3cc(CN4CCCCC4)c(O)c(OC)c3)C2=O)cc(CN2CCCCC2)c1O    KM12 colon          active
 5  COc1ccc(C(O)c2cc3c(N)c(C(=O)Nc4cccc(Cl)c4C)sc3nc2C)cc1 (configuration not stated)    KM12 colon          active
 6  CN(CCCNC(=O)Cc1ccc2ccc3cccc4ccc1c2c34)CCCNc1cc(-c2ccc3ccccc3c2)nc2ccccc12    KM12 colon          active
 7  Cc1ccc(C2CC(c3nc(-c4ccc(Cl)cc4)oc3C)=NN2C(=O)c2ccncc2)cc1 (configuration not stated)    KM12 colon        inactive
 8  CN(C)S(=O)(=O)Oc1ccc(-c2sc3cc(OS(=O)(=O)N(C)C)ccc3c2C(=O)c2ccc(OCCN3CCCCC3)cc2)cc1    KM12 colon        inactive
 9  NC(=O)c1cnc(Nc2cccc(N)c2)nc1NCCCNC(=O)C1CCC1    KM12 colon        inactive
10  N#CC1=C(N)Oc2ccc3ccccc3c2C1c1ccc([N+](=O)[O-])cc1 (configuration not stated)    KM12 colon        inactive

# fetch the recorded call for COc1ccc(C(=O)/C=C/c2ccc(N3CCCCC3)cc2)cc1OC here inactive

Field: outcome | Entry: CN(C)c1ccc(/C=C(\C#N)c2cc3ccccc3[nH]2)cc1 inactive

----------
test system: U251 CNS; assay: NCI-60 one-dose screen, 48 h; conditions: 10 µM unless noted
Compounds without any hit were thinned out: in the full panel of roughly 83,000, 20% have a hit. Calls of active or inactive are those of the source. Rule for the calls: active = growth percent below 10; inactive = the rest.
Allowed answers: Y for active, N for inactive

Reference set (3 entries):
> print(dat)
                           molecular.string  discrete.label
1  CCN1C2CCC1/C(=C\c1ccc(F)cc1)C(=O)/C2=C/c1ccc(F)cc1               N
2  C=C(CNCCc1ccc(O)cc1)[C@@H]1CC[C@]2(CO)CC[C@]3(C)[C@H](CC[C@@H]4[C@@]5(C)CCC(=O)C(C)(C)[C@@H]5CC[C@]43C)[C@@H]12               Y
3  Cc1ccc(S(=O)(=O)c2nc(-c3ccccc3)oc2Sc2nc3ccccc3s2)cc1               N

// outcome(item) with item = O=C(CSc1nnc(-c2cc(-c3ccccc3)nc3ccccc23)n1-c1ccccc1)Nc1ccc(C(=O)/C=C/c2ccc(Cl)cc2)cc1 N

What outcome does the record of this test show for CCc1n(Cc2ccc3ccccc3n2)cc[n+]1Cc1ccc2ccccc2n1 ? N

----------
system: COLO 205 colon; experiment: NCI-60 one-dose screen, 48 h; settings: 10 µM unless noted
This is part of a sample that, as a whole, favours compounds with a hit. Of some 83,000 tested, about 20% had one in any assay. Active and inactive are the calls of the source. The calls were made as follows: active = growth percent below 10; inactive = the rest.
Choose the fitting class; nothing outside active, inactive is accepted.

> print(dat)
                                   compound    assay.target  discrete.label
1  C=CN(C(=O)N1CCN(c2cc3c(cc2F)c(=O)c(C(=O)O)cn3C2CC2)CC1)c1nc(-c2ccc(OC)cc2)cs1  COLO 205 colon        inactive

Tell me the recorded outcome of this test for O=S(=O)(NCCCNc1nccc(-c2c(-c3cccc(F)c3)nc3occn23)n1)c1ccc(F)cc1 . inactive

Call for entry COc1ccc(Cn2cc3c(c2-c2ccccc2)CCc2cnoc2-3)cc1 : active

Please let me know the test result on file for O=C1/C(=C/c2ccc(F)cc2)CN(C(=O)C(Cl)Cl)C/C1=C\c1ccc(F)cc1 . active

Call for entry N#Cc1cccc(C2C3=C(COC3=O)N(CCO)c3cc4c(cc32)CCC4)c1 (stereo not given) : active

Recorded test call requested for NC(=O)c1c(NC(=O)c2cccc(C(F)(F)F)c2)sc2c1CCC(=O)C2 active

Write down the call the test reported for this compound. Item: N#C/C(=C\c1cn(Cc2ccccc2)c2ccccc12)C(=O)Nc1ncc(Cc2ccccc2Cl)s1 active

----------
tested on: HCT-15 colon; assay: NCI-60 one-dose screen, 48 h (100 = growth as untreated, 0 = no growth, -100 = all killed); settings: 10 µM unless noted
This is part of a sample that, as a whole, favours compounds with a hit. Of some 83,000 tested, about 20% had one in any assay.
Rule: growth below 30% gives fulfilled, anything at or above gives not fulfilled.

Here are 2 compounds together with their reported answers.
> print(dat)
                                   compound  discrete.label
1  C#CCOc1cccc(-c2ncnc3cc(NC(=O)C=C)ccc23)c1       fulfilled
2        O=C(Nc1ncccc1OCc1ccccc1)NC1CCCCCC1   not fulfilled

Hi there! Is growth for CC1=CCC(OC(=O)C(C)(C)CC(O)(C(C)O)C(O)C2(C)C=CC(Cc3ccc(C(C)C)cc3)(C(C)C)CC2)(C(C)C)CC1 (stereo unspecified) below 30%, do you know? not fulfilled

# strict comparison: is reported growth < 30%? input = Oc1c(CN2CCOCC2)cc(COCc2ccccc2)c2cccnc12 fulfilled

Dear colleague, could you confirm whether growth of COC(=O)c1ccc(NC(=O)Nc2ccc(C(=O)OC)cc2)cc1 falls below 30%? Thanks. not fulfilled

Bench note: check whether CCOc1ccc(-n2nc(C(=O)NCc3ccccc3OC)nc2-c2cc(OC)c(OC)c(OC)c2)cc1 shows growth below 30% fulfilled
